Cited source for all entries: paper PMC10078150

- System: 22_hTelo (DNA, G4) AGGGTTAGGGTTAGGGTTAGGG
- method_notes: fluorescent indicator displacement
- run_conditions: K+ 40 mM (30 mM KCl + potassium phosphate); 10 mM potassium phosphate pH 7, 25 °C; 0.5 µM thiazole orange displaced, 0.25 µM DNA
measured_parameter: DC50 (nM)

smiles_representation=C(=N\[C@H](COCc1ccc(-c2ccccn2)nc1)c1ccccc1)/c1ccc(OCc2cn(Cc3ccccc3)nn2)cn1.C(=N\[C@H](COCc1ccc(-c2ccccn2)nc1)c1ccccc1)/c1ccc(OCc2cn(Cc3ccccc3)nn2)cn1.C(=N\[C@H](COCc1ccc(-c2ccccn2)nc1)c1ccccc1)/c1ccc(OCc2cn(Cc3ccccc3)nn2)cn1.[Fe+2].[Fe+2] measured_parameter=DC50 data_value=1050
smiles_representation=C(=N\[C@H](COCc1ccc(-c2ccccn2)nc1)c1ccccc1)/c1ccccn1.C(=N\[C@H](COCc1ccc(-c2ccccn2)nc1)c1ccccc1)/c1ccccn1.C(=N\[C@H](COCc1ccc(-c2ccccn2)nc1)c1ccccc1)/c1ccccn1.[Fe+2].[Fe+2] measured_parameter=DC50 data_value=2200
smiles_representation=C(=N\[C@@H](COCc1ccc(-c2ccccn2)nc1)c1ccccc1)/c1ccc(OCc2cn(Cc3ccccc3)nn2)cn1.C(=N\[C@@H](COCc1ccc(-c2ccccn2)nc1)c1ccccc1)/c1ccc(OCc2cn(Cc3ccccc3)nn2)cn1.C(=N\[C@@H](COCc1ccc(-c2ccccn2)nc1)c1ccccc1)/c1ccc(OCc2cn(Cc3ccccc3)nn2)cn1.[Fe+2].[Fe+2] measured_parameter=DC50 data_value=1060
smiles_representation=C(=N\[C@@H](COCc1ccc(-c2ccccn2)nc1)c1ccccc1)/c1ccccn1.C(=N\[C@@H](COCc1ccc(-c2ccccn2)nc1)c1ccccc1)/c1ccccn1.C(=N\[C@@H](COCc1ccc(-c2ccccn2)nc1)c1ccccc1)/c1ccccn1.[Fe+2].[Fe+2] measured_parameter=DC50 data_value=1950
